Provide the recorded %Inh for the entries that follow.
- Tested on: SgK110
- Test conditions: concentration: 1 μM, replicates: in singlicate; n = 1;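 note: KINOMEscan kinase panel screen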
Number only, in %; omit the unit.

// "NS(=O)(=O)c1cccc(-c2ccc3nccc(-c4cccc(S(N)(=O)=O)c4)c3c2)c1" : %Inh value = 0

// "COc1ccc(S(=O)(=O)NC2CCN(c3cc(C)nc(Nc4cccc(C#N)c4)n3)CC2)cc1.O=C(O)C(F)(F)F" : %Inh value = 0

// "N#Cc1ccc(-c2cc(-c3c[nH]nc3-c3ccccn3)ccn2)cc1" : %Inh value = 5

// "Cc1c2ccc(N(C)c3ccnc(Nc4cccc(S(N)(=O)=O)c4)n3)cc2nn1Cc1ccccc1.Cl.Cl" : %Inh value = 2

// "NCCNS(=O)(=O)c1ccc(-c2ccnc3[nH]ccc23)cc1" : %Inh value = 0

// "COc1ccc(Nc2ncc(C#N)c(Nc3ccccc3C(N)=O)n2)cc1N1CCN(C)CC1.Cl" : %Inh value = 66

// "CC(C)(CN)c1nc(-c2ccc(Cl)c(O)c2)c(-c2ccncc2)[nH]1.O=C(O)C(F)(F)F" : %Inh value = 0

// "c1ccc(-c2n[nH]cc2-c2ccnc3ccccc23)nc1" : %Inh value = 0

###

- Tested on: EPHA6
- Test conditions: concentration: 1 μM, replicates: in singlicate; n = 1
Provide the recorded %Inh for the entries that follow.
Number only, in %; omit the unit.

// "Fc1ccc(-c2ncn(CCCN3CCOCC3)c2-c2ccccn2)cc1" : %Inh value = 0

// "Fc1ccc(-c2nn3c(OCC(F)(F)F)cccc3c2-c2ccncc2)cc1" : %Inh value = 11

// "[2H]C([2H])(c1cccc(C(F)(F)F)c1C)n1ccn2c(=O)nc(N3CCOCC3)cc12" : %Inh value = 0

// "COCCNC(=O)c1ccc(-c2cc(C(=O)NC3CC3)cc(F)c2C)cc1" : %Inh value = 30

// "O=C(c1ccc(-c2cc(-c3c[nH]nc3-c3ccccn3)ccn2)cc1)N1CCOCC1" : %Inh value = 6

// "CN1c2ccc(NCc3ccc(F)cc3)cc2-c2c(cnn2C)S1(=O)=O" : %Inh value = 0

// "Cc1cccc(Cn2ccn3c(=O)cc(N4CCOCC4)nc23)c1" : %Inh value = 9

// "CCn1cnc2c(N)ncnc21" : %Inh value = 17

// "O=C1NC(=O)C(N2CCc3ccccc32)=C1c1cccc(Cl)c1" : %Inh value = 18

// "O=C(NOCC1CC1)c1ccc(F)c(F)c1Nc1ccc(I)cc1Cl" : %Inh value = 0

// "CSc1ccc(-c2cc3ncnc(SCC(=O)O)c3s2)cc1" : %Inh value = 6

// "Cl.Oc1cccc(Nc2ccnc3cc(-c4ccncc4)ccc23)c1" : %Inh value = 88

// "Cl.Nc1ncnc2occ(-c3ccc(NC(=O)Nc4cc(C(F)(F)F)ccc4F)cc3)c12" : %Inh value = 99.3

// "CN(C1=C(c2ccccc2)C(=O)NC1=O)c1ccccc1" : %Inh value = 10

// "c1ccc(-c2n[nH]cc2-c2ccnc3ccccc23)nc1" : %Inh value = 1

// "Nc1nc(-c2ccc3c(N)n[nH]c3c2)cc(N2CCCC2)n1" : %Inh value = 6

// "Cc1cccc(-c2nc(-c3ccc(S(C)(=O)=O)cc3)sc2-c2ccncc2)c1" : %Inh value = 44

// "COc1ccc(Nc2ncc(C#N)c(Nc3ccccc3C(N)=O)n2)cc1N1CCN(C)CC1.Cl" : %Inh value = 86

// COc1ccc(CNC(=O)NC2CCN(c3ccnc(Nc4ccc(OC)cc4)n3)C2)cc1 (stereo not shown) : %Inh value = 2

###

- Tested on: SBK1
- Test conditions: concentration: 1 μM, replicates: in singlicate; n = 1
Provide the recorded %Inh for the entries that follow.
Number only, in %; omit the unit.

// "Cc1cccc(Cn2ccn3c(=O)cc(N4CCOCC4)nc23)c1" : %Inh value = 26

// "NS(=O)(=O)c1cccc(-c2ccc3ncc(N4CCOCC4)nc3c2)c1" : %Inh value = 0

// "COCCNC(=O)c1ccc(-c2cc(C(=O)NC3CC3)cc(F)c2C)cc1" : %Inh value = 48

// "[2H]C([2H])(c1cccc(C(F)(F)F)c1C)n1ccn2c(=O)nc(N3CCOCC3)cc12" : %Inh value = 24

// "c1ccc(-c2n[nH]cc2-c2ccnc3ccccc23)nc1" : %Inh value = 9

###

- Test system: PIP5K1C
- Test conditions: concentration: 1 μM, replicates: in singlicate; n = 1
Observation type: %Inh (%)
Number only, in %; omit the unit.

Per the reported PIP5K1C data, "Cn1ccc2ncnc(Oc3ccc(NC(=O)Nc4ccncc4)c(Cl)c3)c21" has %Inh of 5

Per the reported PIP5K1C data, "NS(=O)(=O)c1cccc(-c2ccc3nccc(-c4cccc(S(N)(=O)=O)c4)c3c2)c1" has %Inh of 0

Per the reported PIP5K1C data, "COCCNC(=O)c1ccc(-c2cc(C(=O)NC3CC3)cc(F)c2C)cc1" has %Inh of 0

Per the reported PIP5K1C data, "COc1cc2c(cc1OCCN1CCN(C)CC1)ncc1c3ccc(C#N)cc3[nH]c21" has %Inh of 55

Per the reported PIP5K1C data, "O=c1cc(N2CCOCC2)nc2n(Cc3cccc(C(F)(F)F)c3)ccn12" has %Inh of 28

Per the reported PIP5K1C data, "COc1cc2c(cc1OC[C@@H](O)CO)ncc1c3ccc(C#N)cc3[nH]c21" has %Inh of 47

Per the reported PIP5K1C data, "COc1ccc(COc2cc(-n3cnc4ccccc43)sc2C(N)=O)cc1" has %Inh of 45

Per the reported PIP5K1C data, "CCCCCc1nc2c(N)ncnc2n1CCCCC" has %Inh of 0

Per the reported PIP5K1C data, "NS(=O)(=O)c1cccc(-c2ccc3ncc(N4CCOCC4)nc3c2)c1" has %Inh of 48

Per the reported PIP5K1C data, "Cc1cccc(-c2nc(-c3ccc(S(C)(=O)=O)cc3)sc2-c2ccncc2)c1" has %Inh of 2

Per the reported PIP5K1C data, "O=C(Nc1cccc(-c2nn3ncccc3c2-c2ccnc(Nc3cccc(C(F)(F)F)c3)n2)c1)c1c(F)cccc1F" has %Inh of 37

Per the reported PIP5K1C data, "Cc1cccc(-c2nc(Nc3ccc4ncsc4c3)c3ccccc3n2)n1" has %Inh of 4

Per the reported PIP5K1C data, NCC(NC(=O)c1cc(-c2cn[nH]c2)c(-c2ccnc3[nH]ccc23)s1)c1ccccc1.O=C(O)C(F)(F)F.O=C(O)C(F)(F)F (centres unmarked) has %Inh of 80

Per the reported PIP5K1C data, "CN(C1=C(c2ccccc2)C(=O)NC1=O)c1ccccc1" has %Inh of 37

Per the reported PIP5K1C data, "C[C@@H](Oc1cc(-n2cnc3ccc(NC(=O)NC(C)(C)C)cc32)sc1C(N)=O)c1ccccc1Cl" has %Inh of 48

Per the reported PIP5K1C data, "O=c1cc(N2CCOCC2)nc2n(Cc3cccc(F)c3)ccn12" has %Inh of 21

Per the reported PIP5K1C data, "CN1c2ccc(NCc3ccc(F)cc3)cc2-c2c(cnn2C)S1(=O)=O" has %Inh of 31

Per the reported PIP5K1C data, "CSc1ccc(-c2cc3ncnc(SCC(=O)O)c3s2)cc1" has %Inh of 0

Per the reported PIP5K1C data, "CCc1ccnc(/C=C/c2n[nH]c3cc(Sc4ccccc4C(=O)NC)ccc23)c1" has %Inh of 0

Per the reported PIP5K1C data, "c1ccc(-c2n[nH]cc2-c2ccnc3ccccc23)nc1" has %Inh of 0

Per the reported PIP5K1C data, "CNc1ncnc2[nH]ncc12" has %Inh of 0

Per the reported PIP5K1C data, "O=C1Cc2cc(Nc3nc(NCc4cccc(S(=O)(=O)C(F)(F)F)c4)ncc3C(F)(F)F)ccc2N1" has %Inh of 3

Per the reported PIP5K1C data, "O=C(c1ccc(-c2cc(-c3c[nH]nc3-c3ccccn3)ccn2)cc1)N1CCOCC1" has %Inh of 0

Per the reported PIP5K1C data, "Fc1ccc(-c2ncn(CCCN3CCOCC3)c2-c2ccccn2)cc1" has %Inh of 47

Per the reported PIP5K1C data, "Cc1nnc(-c2ccc(C)c(-c3ccc(C(=O)Nc4ccc(NS(C)(=O)=O)cc4)cc3)c2)o1" has %Inh of 26

Per the reported PIP5K1C data, "NS(=O)(=O)CCc1cccc(Nc2nccc(-c3c(-c4cccc(NC(=O)c5c(F)cccc5F)c4)nn4ccccc34)n2)c1" has %Inh of 36

Per the reported PIP5K1C data, "Nc1nccc(-c2c(-c3ccc(F)cc3)ncn2C2CCN(CC(F)(F)F)CC2)n1" has %Inh of 7

Per the reported PIP5K1C data, "CCn1cnc2c(N)ncnc21" has %Inh of 0

Per the reported PIP5K1C data, "O=C(NCCNc1ccnc(Nc2ccc(F)cc2)n1)Nc1ccccc1F" has %Inh of 24

Per the reported PIP5K1C data, "COC(=O)Nc1nc2cc(Oc3ccc(NC(=O)Nc4cc(F)ccc4F)cc3)ccc2[nH]1.Cl" has %Inh of 9

Per the reported PIP5K1C data, "c1ccc(-c2cc(-c3c[nH]nc3-c3ccccn3)ccn2)cc1" has %Inh of 58

Per the reported PIP5K1C data, COc1ccc(Nc2nccc(N3CCC(NC(=O)Nc4cccc(C(C)=O)c4)C3)n2)cc1 (centres unmarked) has %Inh of 24

Per the reported PIP5K1C data, "CCc1nc(-c2cccc(C)c2)c(-c2ccnc(NCc3ccccc3)c2)s1" has %Inh of 14

Per the reported PIP5K1C data, "COc1ccc(S(=O)(=O)NC2CCN(c3cc(C)nc(Nc4cccc(C#N)c4)n3)CC2)cc1.O=C(O)C(F)(F)F" has %Inh of 11

Per the reported PIP5K1C data, "O=C(Nc1n[nH]c2cc(-c3cccc(F)c3)ccc12)C1CC1" has %Inh of 18
